Entry source: paper PMC7793522

Molecular target: T1, EBV peptide on HLA-B*35:08 (human)
T1 peptide: LPEPLPQGQLTAY
Assay: data from [113]; method not given; soluble, other
RECORDED_METRIC: Kd

Suppose we examine the binder SB47 (TCR) alpha TRAV39*01 CDR3: AVGGGSNYQLI beta TRBV5-6*01 CDR3: ASSRTGSTYEQY ; what Kd value has been reported?
25 µM
